target: HLA-B*07:02 (Homo sapiens)
Type: binding
assay.conditions: percent relative the binding of positive control peptide […]; duplicated experiments; positive binder >40%
Entries annotated with measured Bind B*07:02
property.name: Bind B*07:02 (%)

INSERT INTO results (substance, unit_name, recorded_number) VALUES
  ('PSSDPAW ER', '%', 10),
  ('RAQDDYNGW', '%', 0),
  ('YLLDGLRAQ', '%', 0),
  ('AAYHPQQFI', '%', 9),
  ('RAYHSMSST [Rv0288_67–75m1]', '%', 14),
  ('ETFLTSELP', '%', 5),
  ('GANIPAEFL', '%', 0),
  ('RSSNLKFQD', '%', 3),
  ('NLARTISEA [Rv3875_71–79]', '%', 10),
  ('WVYCGNGTP', '%', 2),
  ('AVFNFPPNG', '%', 0),
  ('QQKWDATAT [Rv3875_55–63]', '%', 9),
  ('LVANNT RLW', '%', 50),
  ('NTPAFEWYY', '%', 0),
  ('LDPSQGMGP', '%', 43),
  ('SGLSIVMPV', '%', 0),
  ('QT YKWETFL', '%', 0),
  ('MGPSLIGLA', '%', 5),
  ('LAAAWGGSG [Rv3875_39-47]', '%', 4),
  ('PNGTHSWEY', '%', 8),
  ('AWGGSGSEA [Rv3875_42–50]', '%', 6),
  ('GSAAIGLSM', '%', 38),
  ('GQSSFYSDW', '%', 0),
  ('IQGNVTSIH [Rv3875_18–26]', '%', 3),
  ('AGSSAMILA', '%', 10),
  ('GGANIPAEF', '%', 0),
  ('AIQGNVTSI [Rv3875_17-25]', '%', 4),
  ('IYAGSLSAL', '%', 83),
  ('QSSFYSDWY', '%', 0),
  ('IPAEFLENF', '%', 47),
  ('GPSLIGLAM', '%', 85),
  ('AMGDAGGYK', '%', 8),
  ('WGAQLNAMK', '%', 0),
  ('SSAMILAAY', '%', 4),
  ('VKPTGSAAI', '%', 43),
  ('DPSQGMGPS', '%', 0),
  ('LSMAGSSAM', '%', 92),
  ('TSELPQW LS', '%', 14),
  ('SALLDPSQG', '%', 3),
  ('YHPQQFIYA', '%', 0),
  ('QSGLSIVMP', '%', 0);

* * *

target: HLA-A*24:02 (Homo sapiens, UniProt P04439, D101N/D140Y/D185E/E176V/E190D/F33S/G103R/G107R/I119L/I121M/I306V/K335N/L105A/L180Q/L300P/N151K/N90K/Q86E/Q94H/R106L/R138H/R89G/T104I/T345S/V100E/W191G/Y123F)
Type: binding
assay.conditions: percent relative the binding of positive control peptide RYLKDQQLL; duplicated experiments; positive binder >40%
# maps each entry to its Bind A*24:02
property.name: Bind A*24:02 (%)

INSERT INTO assay_data (item_sequence, unit_name, recorded_number) VALUES
  ('AAWGGSGSE [Rv3875_41–49]', '%', 2),
  ('LLDEGKQSL [Rv3875_28–36]', '%', 0),
  ('LQNLARTIS [Rv3875_69–77]', '%', 26),
  ('AYQGVQQKW [Rv3875_50–58]', '%', 60),
  ('KLAAAWGGS [Rv3875_38-46]', '%', 33),
  ('LTKLAAAWG [Rv3875_36-44]', '%', 0),
  ('VQQKWDATA [Rv3875_54–62]', '%', 0),
  ('SLTKLAAAW [Rv3875_35–43]', '%', 12);

* * *

Bind C*07:01 overview
target: HLA-C*07:01 (Homo sapiens, UniProt P10321, K90N/S123Y)
Assay type: binding
assay.conditions: percent relative the binding of positive control peptide […]; duplicated experiments; positive binder >40%
property.name: Bind C*07:01 (%)

INSERT INTO measurements (substance, target, property_name, recorded_number) VALUES
  ('RLWVYCGNG', 'HLA-C*07:01 (Homo sapiens, UniProt P10321, K90N/S123Y)', 'Bind C*07:01', 9),
  ('SSFYSDWYS', 'HLA-C*07:01 (Homo sapiens, UniProt P10321, K90N/S123Y)', 'Bind C*07:01', 1),
  ('NAAGGHNAV', 'HLA-C*07:01 (Homo sapiens, UniProt P10321, K90N/S123Y)', 'Bind C*07:01', 5),
  ('LLDGLRAQD', 'HLA-C*07:01 (Homo sapiens, UniProt P10321, K90N/S123Y)', 'Bind C*07:01', 0),
  ('SAMILAAYH', 'HLA-C*07:01 (Homo sapiens, UniProt P10321, K90N/S123Y)', 'Bind C*07:01', 15),
  ('GITYQAWQA [Rv0288_48–56]', 'HLA-C*07:01 (Homo sapiens, UniProt P10321, K90N/S123Y)', 'Bind C*07:01', 0),
  ('IPKLVANNT', 'HLA-C*07:01 (Homo sapiens, UniProt P10321, K90N/S123Y)', 'Bind C*07:01', 0),
  ('DTGITYQAW [Rv0288_46–54]', 'HLA-C*07:01 (Homo sapiens, UniProt P10321, K90N/S123Y)', 'Bind C*07:01', 0),
  ('PVGGQSSFY', 'HLA-C*07:01 (Homo sapiens, UniProt P10321, K90N/S123Y)', 'Bind C*07:01', 0),
  ('QSSFYSDWY', 'HLA-C*07:01 (Homo sapiens, UniProt P10321, K90N/S123Y)', 'Bind C*07:01', 22),
  ('LSANRAVKP', 'HLA-C*07:01 (Homo sapiens, UniProt P10321, K90N/S123Y)', 'Bind C*07:01', 24),
  ('KAADMW GPS', 'HLA-C*07:01 (Homo sapiens, UniProt P10321, K90N/S123Y)', 'Bind C*07:01', 34),
  ('AAYHPQQFI', 'HLA-C*07:01 (Homo sapiens, UniProt P10321, K90N/S123Y)', 'Bind C*07:01', 0),
  ('AQLNAMKGD', 'HLA-C*07:01 (Homo sapiens, UniProt P10321, K90N/S123Y)', 'Bind C*07:01', 3),
  ('QQIPKLVAN', 'HLA-C*07:01 (Homo sapiens, UniProt P10321, K90N/S123Y)', 'Bind C*07:01', 15),
  ('GT HSWEYWG', 'HLA-C*07:01 (Homo sapiens, UniProt P10321, K90N/S123Y)', 'Bind C*07:01', 25),
  ('YHPQQFIYA', 'HLA-C*07:01 (Homo sapiens, UniProt P10321, K90N/S123Y)', 'Bind C*07:01', 15),
  ('MKGDLQSSL', 'HLA-C*07:01 (Homo sapiens, UniProt P10321, K90N/S123Y)', 'Bind C*07:01', 63),
  ('YAGSLSALL', 'HLA-C*07:01 (Homo sapiens, UniProt P10321, K90N/S123Y)', 'Bind C*07:01', 19),
  ('MGPSLIGLA', 'HLA-C*07:01 (Homo sapiens, UniProt P10321, K90N/S123Y)', 'Bind C*07:01', 14),
  ('VYLLDGLRA', 'HLA-C*07:01 (Homo sapiens, UniProt P10321, K90N/S123Y)', 'Bind C*07:01', 9),
  ('GTPNELGGA', 'HLA-C*07:01 (Homo sapiens, UniProt P10321, K90N/S123Y)', 'Bind C*07:01', 0),
  ('MW GPSSDPA', 'HLA-C*07:01 (Homo sapiens, UniProt P10321, K90N/S123Y)', 'Bind C*07:01', 0),
  ('ACGKAGCQT', 'HLA-C*07:01 (Homo sapiens, UniProt P10321, K90N/S123Y)', 'Bind C*07:01', 0),
  ('AMGDAGGYK', 'HLA-C*07:01 (Homo sapiens, UniProt P10321, K90N/S123Y)', 'Bind C*07:01', 0),
  ('AGSSAMILA', 'HLA-C*07:01 (Homo sapiens, UniProt P10321, K90N/S123Y)', 'Bind C*07:01', 14),
  ('LSMAGSSAM', 'HLA-C*07:01 (Homo sapiens, UniProt P10321, K90N/S123Y)', 'Bind C*07:01', 71),
  ('QWLSANRAV', 'HLA-C*07:01 (Homo sapiens, UniProt P10321, K90N/S123Y)', 'Bind C*07:01', 11),
  ('YNAAGGHNA', 'HLA-C*07:01 (Homo sapiens, UniProt P10321, K90N/S123Y)', 'Bind C*07:01', 12),
  ('NAMKGDLQS', 'HLA-C*07:01 (Homo sapiens, UniProt P10321, K90N/S123Y)', 'Bind C*07:01', 20),
  ('YNYPAMLGH [Rv0288_6–14]', 'HLA-C*07:01 (Homo sapiens, UniProt P10321, K90N/S123Y)', 'Bind C*07:01', 48),
  ('CGKAGCQT Y', 'HLA-C*07:01 (Homo sapiens, UniProt P10321, K90N/S123Y)', 'Bind C*07:01', 5),
  ('SPAVYLLDG', 'HLA-C*07:01 (Homo sapiens, UniProt P10321, K90N/S123Y)', 'Bind C*07:01', 1),
  ('NFPPNGTHS', 'HLA-C*07:01 (Homo sapiens, UniProt P10321, K90N/S123Y)', 'Bind C*07:01', 0),
  ('YSDWYSPAC', 'HLA-C*07:01 (Homo sapiens, UniProt P10321, K90N/S123Y)', 'Bind C*07:01', 5),
  ('RDTAEAAKW [Rv0288_86–94]', 'HLA-C*07:01 (Homo sapiens, UniProt P10321, K90N/S123Y)', 'Bind C*07:01', 0),
  ('THSWEYWGA', 'HLA-C*07:01 (Homo sapiens, UniProt P10321, K90N/S123Y)', 'Bind C*07:01', 6),
  ('NLKFQDAYN', 'HLA-C*07:01 (Homo sapiens, UniProt P10321, K90N/S123Y)', 'Bind C*07:01', 7),
  ('QAWQAQWNQ [Rv0288_52–60]', 'HLA-C*07:01 (Homo sapiens, UniProt P10321, K90N/S123Y)', 'Bind C*07:01', 0),
  ('PTQQIPKLV', 'HLA-C*07:01 (Homo sapiens, UniProt P10321, K90N/S123Y)', 'Bind C*07:01', 22),
  ('NFVRSSNLK', 'HLA-C*07:01 (Homo sapiens, UniProt P10321, K90N/S123Y)', 'Bind C*07:01', 0),
  ('QLNAMKGDL', 'HLA-C*07:01 (Homo sapiens, UniProt P10321, K90N/S123Y)', 'Bind C*07:01', 17);
